Where do the numbers come from? From paper PMC10247784.

# MEASURED TARGET: human TAS2R1 (Homo sapiens, UniProt Q9NYW7)
# Construct: expressed in transfected cells; host or cells: HEK293T-Gα16gust44
# PROTOCOL NOTES: Calcium imaging assay (FLIPR), HEK293T-Gα16gust44 cells transfected with human TAS2R1
# Format: cell-based
# MEASUREMENT CONTEXT: Time 173.547 s
Recorded RLU, one value per entry.
MEASURE NAME: RLU (RLU)

>  <MOLECULE>
C[C@H](CCC(=O)O)[C@H]1CC[C@H]2[C@@H]3CC[C@@H]4C[C@H](O)CC[C@]4(C)[C@H]3C[C@H](O)[C@]12C [Deoxycholic Acid, deoxycholic acid]

>  <MEASURED TARGET>
human TAS2R1 (Homo sapiens, UniProt Q9NYW7)

>  <UNIT OF MEASURE>
RLU

>  <NUMERIC VALUE>
260.648

$$$$
>  <MOLECULE>
C[C@H](CCC(=O)NCCS(=O)(=O)O)[C@H]1CC[C@H]2[C@@H]3CC[C@@H]4C[C@H](O)CC[C@]4(C)[C@H]3CC[C@]12C [Taurolithocholic Acid, taurolithocholic acid]

>  <MEASURED TARGET>
human TAS2R1 (Homo sapiens, UniProt Q9NYW7)

>  <UNIT OF MEASURE>
RLU

>  <NUMERIC VALUE>
185.568

$$$$
>  <MOLECULE>
C[C@H](CCC(=O)NCCS(=O)(=O)O)[C@H]1CC[C@H]2[C@@H]3[C@H](O)C[C@@H]4C[C@H](O)CC[C@]4(C)[C@H]3C[C@H](O)[C@]12C [Taurocholic Acid, taurocholic acid]

>  <MEASURED TARGET>
human TAS2R1 (Homo sapiens, UniProt Q9NYW7)

>  <UNIT OF MEASURE>
RLU

>  <NUMERIC VALUE>
141.583

$$$$
>  <MOLECULE>
C[C@H](CCC(=O)NCC(=O)O)[C@H]1CC[C@H]2[C@@H]3[C@H](O)C[C@@H]4C[C@H](O)CC[C@]4(C)[C@H]3C[C@H](O)[C@]12C [Glycocholic Acid, glycocholic acid]

>  <MEASURED TARGET>
human TAS2R1 (Homo sapiens, UniProt Q9NYW7)

>  <UNIT OF MEASURE>
RLU

>  <NUMERIC VALUE>
217.997

$$$$

* * *

Here the recorded RLU is given for each entry.
# MEASURED TARGET: mouse Tas2r108 (Mus musculus, UniProt Q9JKT3)
# Construct: expressed in transfected cells; host or cells: HEK293T-Gα16gust44
# Sequence (Q9JKT3 whole entry): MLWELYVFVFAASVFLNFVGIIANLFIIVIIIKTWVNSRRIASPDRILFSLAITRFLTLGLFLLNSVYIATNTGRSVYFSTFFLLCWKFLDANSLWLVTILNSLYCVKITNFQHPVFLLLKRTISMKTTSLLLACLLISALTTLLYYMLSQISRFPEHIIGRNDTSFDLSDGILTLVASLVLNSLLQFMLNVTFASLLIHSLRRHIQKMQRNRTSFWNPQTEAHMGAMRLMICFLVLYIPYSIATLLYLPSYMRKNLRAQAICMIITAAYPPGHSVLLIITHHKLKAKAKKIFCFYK
# PROTOCOL NOTES: Calcium imaging assay (FLIPR), HEK293T-Gα16gust44 cells transfected with mouse Tas2r108
# Assay type: cell-based
# MEASUREMENT CONTEXT: Time 203.562 s

>  <COMPOUND>
C[C@H](CCC(=O)O)[C@H]1CC[C@H]2[C@@H]3[C@H](O)C[C@@H]4C[C@H](O)CC[C@]4(C)[C@H]3C[C@H](O)[C@]12C [Cholic Acid, cholic acid]

>  <RLU (RLU)>
164.056

$$$$
>  <COMPOUND>
C[C@H](CCC(=O)O)[C@H]1CC[C@H]2[C@@H]3CC[C@@H]4C[C@H](O)CC[C@]4(C)[C@H]3C[C@H](O)[C@]12C [Deoxycholic Acid, deoxycholic acid]

>  <RLU (RLU)>
538.761

$$$$
>  <COMPOUND>
C[C@H](CCC(=O)NCCS(=O)(=O)O)[C@H]1CC[C@H]2[C@@H]3[C@H](O)C[C@@H]4C[C@H](O)CC[C@]4(C)[C@H]3C[C@H](O)[C@]12C [Taurocholic Acid, taurocholic acid]

>  <RLU (RLU)>
214.938

$$$$
>  <COMPOUND>
C[C@H](CCC(=O)NCC(=O)O)[C@H]1CC[C@H]2[C@@H]3[C@H](O)C[C@@H]4C[C@H](O)CC[C@]4(C)[C@H]3C[C@H](O)[C@]12C [Glycocholic Acid, glycocholic acid]

>  <RLU (RLU)>
190.575

$$$$

* * *

# MEASURED TARGET: mouse Tas2r144 (Mus musculus, UniProt Q7TQB8)
# Construct: expressed in transfected cells; host or cells: HEK293T-Gα16gust44
# Sequence (Q7TQB8 whole entry): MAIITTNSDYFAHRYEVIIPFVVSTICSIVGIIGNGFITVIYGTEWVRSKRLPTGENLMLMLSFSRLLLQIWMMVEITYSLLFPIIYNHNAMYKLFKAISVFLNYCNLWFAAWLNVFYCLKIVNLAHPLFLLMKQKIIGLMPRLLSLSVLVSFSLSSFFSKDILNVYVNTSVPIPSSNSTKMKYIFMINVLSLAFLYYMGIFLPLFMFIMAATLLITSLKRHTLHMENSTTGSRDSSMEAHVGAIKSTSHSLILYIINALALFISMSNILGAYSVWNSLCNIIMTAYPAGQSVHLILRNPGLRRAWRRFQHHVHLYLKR
# PROTOCOL NOTES: Calcium imaging assay (FLIPR), HEK293T-Gα16gust44 cells transfected with mouse Tas2r144
# Assay type: cell-based
# MEASUREMENT CONTEXT: Time 16 s
# Protocol: This set of bile acids was chosen because of their commercial availability in high purities, their diversity within the class of bile acids and their previous detection and quantitation in human blood. Stock solutions were prepared in DMSO. […] Measured data were negative control corrected by subtracting the signal of the mock-transfected cells and exported to Microsoft Excel using the FLIPR software ScreenWorks 4.2. […]

>  <SMILES RECORD>
C[C@H](CCC(=O)NCCS(=O)(=O)O)[C@H]1CC[C@H]2[C@@H]3CC[C@@H]4C[C@H](O)CC[C@]4(C)[C@H]3CC[C@]12C

>  <UNIT OF MEASURE>
RLU

>  <RLU>
-6.199

$$$$
>  <SMILES RECORD>
C[C@H](CCC(=O)NCC(=O)O)[C@H]1CC[C@H]2[C@@H]3[C@H](O)C[C@@H]4C[C@H](O)CC[C@]4(C)[C@H]3C[C@H](O)[C@]12C

>  <UNIT OF MEASURE>
RLU

>  <RLU>
-0.5597

$$$$
>  <SMILES RECORD>
C[C@H](CCC(=O)NCCS(=O)(=O)O)[C@H]1CC[C@H]2[C@@H]3[C@H](O)C[C@@H]4C[C@H](O)CC[C@]4(C)[C@H]3C[C@H](O)[C@]12C

>  <UNIT OF MEASURE>
RLU

>  <RLU>
31.9896

$$$$
>  <SMILES RECORD>
C[C@H](CCC(=O)O)[C@H]1CC[C@H]2[C@@H]3[C@H](O)C[C@@H]4C[C@H](O)CC[C@]4(C)[C@H]3C[C@H](O)[C@]12C

>  <UNIT OF MEASURE>
RLU

>  <RLU>
11.4185

$$$$

* * *

# MEASURED TARGET: human TAS2R1 (Homo sapiens)
# Construct: expressed in transfected cells; host or cells: HEK293T-Gα16gust44
# Sequence (Q9NYW7 1-299): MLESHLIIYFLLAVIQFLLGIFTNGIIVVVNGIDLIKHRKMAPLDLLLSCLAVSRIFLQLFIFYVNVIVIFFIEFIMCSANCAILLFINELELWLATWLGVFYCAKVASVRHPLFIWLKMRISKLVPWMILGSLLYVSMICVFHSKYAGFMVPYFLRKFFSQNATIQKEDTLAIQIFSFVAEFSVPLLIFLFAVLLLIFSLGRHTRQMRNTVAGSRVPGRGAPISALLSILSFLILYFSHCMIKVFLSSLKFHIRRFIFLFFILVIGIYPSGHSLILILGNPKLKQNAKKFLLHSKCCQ
# PROTOCOL NOTES: Calcium imaging assay (FLIPR), HEK293T-Gα16gust44 cells transfected with human TAS2R1
# Type: cell-based
# MEASUREMENT CONTEXT: Time 114.781 s

>  <SMILES RECORD>
C[C@H](CCC(=O)NCC(=O)O)[C@H]1CC[C@H]2[C@@H]3[C@H](O)C[C@@H]4C[C@H](O)CC[C@]4(C)[C@H]3C[C@H](O)[C@]12C

>  <RLU, RLU>
493.52

$$$$
>  <SMILES RECORD>
C[C@H](CCC(=O)NCCS(=O)(=O)O)[C@H]1CC[C@H]2[C@@H]3CC[C@@H]4C[C@H](O)CC[C@]4(C)[C@H]3CC[C@]12C

>  <RLU, RLU>
553.55

$$$$
>  <SMILES RECORD>
C[C@H](CCC(=O)O)[C@H]1CC[C@H]2[C@@H]3CC[C@@H]4C[C@H](O)CC[C@]4(C)[C@H]3C[C@H](O)[C@]12C

>  <RLU, RLU>
393.07

$$$$
>  <SMILES RECORD>
C[C@H](CCC(=O)NCCS(=O)(=O)O)[C@H]1CC[C@H]2[C@@H]3[C@H](O)C[C@@H]4C[C@H](O)CC[C@]4(C)[C@H]3C[C@H](O)[C@]12C

>  <RLU, RLU>
327.9

$$$$

* * *

# MEASURED TARGET: mouse Tas2r105 (Mus musculus, UniProt Q9JKT4)
# Construct: expressed in transfected cells; host or cells: HEK293T-Gα16gust44
# Sequence (Q9JKT4 1-300): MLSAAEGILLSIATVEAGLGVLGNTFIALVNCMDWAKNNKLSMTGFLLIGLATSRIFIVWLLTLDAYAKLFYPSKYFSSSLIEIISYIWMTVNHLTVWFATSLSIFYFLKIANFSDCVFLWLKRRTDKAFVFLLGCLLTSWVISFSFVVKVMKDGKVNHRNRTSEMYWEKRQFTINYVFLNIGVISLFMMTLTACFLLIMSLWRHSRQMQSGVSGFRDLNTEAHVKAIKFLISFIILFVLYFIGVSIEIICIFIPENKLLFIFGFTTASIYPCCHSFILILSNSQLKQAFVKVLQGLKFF
# PROTOCOL NOTES: Calcium imaging assay (FLIPR), HEK293T-Gα16gust44 cells transfected with mouse Tas2r105
# Assay type: cell-based
# MEASUREMENT CONTEXT: Time 46.781 s
// reported RLU per item
MEASURE NAME: RLU (RLU)

>  <SMILES RECORD>
C[C@H](CCC(=O)O)[C@H]1CC[C@H]2[C@@H]3[C@H](O)C[C@@H]4C[C@H](O)CC[C@]4(C)[C@H]3C[C@H](O)[C@]12C

>  <MEASURE NAME>
RLU

>  <NUMERIC VALUE>
164.231

$$$$
>  <SMILES RECORD>
C[C@H](CCC(=O)O)[C@H]1CC[C@H]2[C@@H]3CC[C@@H]4C[C@H](O)CC[C@]4(C)[C@H]3CC[C@]12C

>  <MEASURE NAME>
RLU

>  <NUMERIC VALUE>
50.4831

$$$$
>  <SMILES RECORD>
C[C@H](CCC(=O)NCC(=O)O)[C@H]1CC[C@H]2[C@@H]3[C@H](O)C[C@@H]4C[C@H](O)CC[C@]4(C)[C@H]3C[C@H](O)[C@]12C

>  <MEASURE NAME>
RLU

>  <NUMERIC VALUE>
200.571

$$$$
>  <SMILES RECORD>
C[C@H](CCC(=O)O)[C@H]1CC[C@H]2[C@@H]3CC[C@@H]4C[C@H](O)CC[C@]4(C)[C@H]3C[C@H](O)[C@]12C

>  <MEASURE NAME>
RLU

>  <NUMERIC VALUE>
4.597

$$$$
